# Test system: Igrov ABCG2 cells + mitoxantrone, trypan blue viability, 3 d
# assay summary: restoration of mitoxantrone killing in ABCG2 cells, SAR follow-up, orthogonal assay for ABC transporter inhibitor project, Igrov cells, one SAR set (AID 2830)
Active and inactive are the calls of the source.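 How the source made its calls: active means toxic dose over resistance-reversal dose ratio above 10, when the toxic dose is under 15 µM; inactive means the rest.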
Answer with one of the outcomes given here: 1 (yes) (active), 0 (no) (inactive)

Look over these answered cases.
compound: COc1ccc(-c2nn(-c3ccccc3)cc2/C=C/C(=O)N2CCN(c3ccccn3)CC2)cc1
group label: 1 (yes)

compound: CCOC(=O)c1c(NC(=O)CSc2ncccn2)sc2c1CCN(Cc1ccccc1)C2
group label: 0 (no)

compound: Cc1cc(C)c(C#N)c(SCc2c(F)cccc2[N+](=O)[O-])n1
group label: 0 (no)

compound: Cc1nc2cc(-c3cccc(F)c3)nn2c(N2CCN(C(=O)c3ccco3)CC2)c1C
group label: 1 (yes)

compound: CCCCN(C)C1=CC2=CC(=C(C#N)C#N)CCC2CC1 (stereo not given)
group label: 1 (yes)

Ask | Entry `COc1ccc(/C=N/NC(=O)c2cccnc2)cc1CN1CCN(c2ccc(F)cc2)CC1` : call = ?
Reply | 0 (no)

Ask | Try this compound next: `N#Cc1ccc(-c2ccc(OCC(=O)NCCc3ccccc3)cc2)cc1`
Reply | 1 (yes)

Ask | Please give the result for COC(=O)c1ccc(C(C(=O)NC2CCCCC2)N(Cc2ccccc2)C(=O)Cc2cccs2)cc1 (stereo not given) too.
Reply | 1 (yes)

Ask | How about `CCOC(=O)c1cccc(NC(=O)c2cnc3ccccc3n2)c1` ?
Reply | 0 (no)

Ask | Then `CCCCn1c(O)c(N=Nc2ccccn2)c2ccccc21` ?
Reply | 0 (no)

====

# System: Igrov ABCG2 cells + mitoxantrone, trypan blue viability, 3 d
# assay summary: restoration of mitoxantrone killing in ABCG2 cells, SAR follow-up, orthogonal assay for ABC transporter inhibitor project, Igrov cells, one SAR set (AID 2830)
Calls of active or inactive are those of the source.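 The calls were made as follows: active = toxic dose over resistance-reversal dose ratio above 10, when the toxic dose is under 15 µM; inactive = the rest.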
Record form. Attribute: EC50. Fill in for each entry.

molecule: O=[N+]([O-])c1ccc(Nc2nc(Cl)nc(NCCO)n2)cc1
EC50: 55.5 µM (inactive)
//
molecule: O=[N+]([O-])c1ccccc1-c1nc(-c2ccc(Br)o2)no1
EC50: 15.6 µM (inactive)
//
molecule: CNc1nc2cc([N+](=O)[O-])c([N+](=O)[O-])cc2nc1NC
EC50: 5.77 µM (inactive)
//
molecule: CCN(CC)P(=O)(Nc1cccc(C(F)(F)F)c1)c1ccc(N(C)C)cc1NC(=O)c1ccco1 (stereo not given)
EC50: 2.31 µM (inactive)

Ask | Can you look up the measured EC50 of `CC1=NN(c2ccc([N+](=O)[O-])cc2)C(=O)/C1=C/N(C)C` for me?
Reply | 54.4 µM (inactive)

====

# Test system: Igrov ABCG2 cells + mitoxantrone, trypan blue viability, 3 d
# assay summary: restoration of mitoxantrone killing in ABCG2 cells, SAR follow-up, orthogonal assay for ABC transporter inhibitor project, Igrov cells, one SAR set (AID 2830)
# condition parameters: measured here: toxicity without chemotherapeutic (TD50)
readout name: CC50

# count of solved cases: 4
compound: CC1=NN(c2ccc([N+](=O)[O-])cc2)C(=O)/C1=C/N(C)C
readout name: CC50
result: 78.4 µM

compound: O=[N+]([O-])c1ccc(Nc2nc(Cl)nc(NCCO)n2)cc1
readout name: CC50
result: > 100 µM

compound: O=[N+]([O-])c1ccccc1-c1nc(-c2ccc(Br)o2)no1
readout name: CC50
result: 23.2 µM

compound: Cc1nc2cc(-c3cccc(F)c3)nn2c(N2CCN(C(=O)c3ccco3)CC2)c1C
readout name: CC50
result: > 100 µM

State the recorded CC50 for every item in the following list.
1. CCN(CC)P(=O)(Nc1cccc(C(F)(F)F)c1)c1ccc(N(C)C)cc1NC(=O)c1ccco1 (stereo not given)
2. CNc1nc2cc([N+](=O)[O-])c([N+](=O)[O-])cc2nc1NC
3. N#Cc1ccc(-c2ccc(OCC(=O)NCCc3ccccc3)cc2)cc1
4. COc1ccc(-c2nn(-c3ccccc3)cc2/C=C/C(=O)N2CCN(c3ccccn3)CC2)cc1
5. COC(=O)c1ccc(C(C(=O)NC2CCCCC2)N(Cc2ccccc2)C(=O)Cc2cccs2)cc1 (stereo not given)
6. COc1ccc(/C=N/NC(=O)c2cccnc2)cc1CN1CCN(c2ccc(F)cc2)CC1
7. CCOC(=O)c1cccc(NC(=O)c2cnc3ccccc3n2)c1
8. Cc1cc(C)c(C#N)c(SCc2c(F)cccc2[N+](=O)[O-])n1

Reply |
19.8 µM
7.32 µM
> 100 µM
> 100 µM
> 100 µM
15.4 µM
67.8 µM
> 100 µM

Give CC50 for each listed item.
1. CCCCN(C)C1=CC2=CC(=C(C#N)C#N)CCC2CC1 (stereo not given)
2. CCOC(=O)c1c(NC(=O)CSc2ncccn2)sc2c1CCN(Cc1ccccc1)C2

Reply |
67.8 µM
2.61 µM

Ask | # CC50 lookup, item `CCCCn1c(O)c(N=Nc2ccccn2)c2ccccc21`
Reply | 7.62 µM
